Hey, just so you know, these numbers are from patent US6407247B1.

Reported E^11 by item:
Assay: UV absorption of the compounds of Table 2 (absorption maximum and specific extinction)
Type: physicochemical
Settings: specific extinction at λmax, Table 2
measurement type: E^11

>>> measured("CCCCC(CC)COC(=O)c1ccccc1NC=C(C(C)=O)C(=O)OC(C)(C)C (centres unmarked) [Compound 31]")
717
>>> measured("CCOC(=O)C(=CNc1ccccc1C(=O)OC)C(=O)OCC [Compound 37]")
890
>>> measured("CC(C)(C)C(=O)C(C#N)=CNc1ccc(C(C)(C)C)cc1 [Compound 4]")
888
>>> measured("CCCCC(CC)COC(=O)C(C#N)=CNc1ccc(C(=O)OCC)cc1 (centres unmarked) [Compound 35]")
1105
>>> measured("CCCCOC(=O)c1ccccc1NC=C(C(C)=O)C(C)=O [Compound 25]")
938
